These entries and their values trace back to patent US20200164069A1.

- TESTED SYSTEM: IL-21 (species not stated in the assay) (Homo sapiens (Human), UniProt Q9HBE4 25-162, Biotinylated in the competition ELISA of paragraph 259 (sites not given); unlabelled in the other results.)
- Sequence (Q9HBE4 25-162 limits assumed): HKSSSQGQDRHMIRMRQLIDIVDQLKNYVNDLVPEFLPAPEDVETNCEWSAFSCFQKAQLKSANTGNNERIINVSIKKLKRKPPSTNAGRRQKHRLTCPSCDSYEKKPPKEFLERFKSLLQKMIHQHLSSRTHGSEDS
- EXPERIMENT DESCRIPTION: cell-based or functional assay
READOUT TYPE: maximal inhibition in pSTAT3 assay (%)
Numbers only, in %.

BINDER: K2Ha-N56Q (antibody, human IgG1, kappa, V domains shown) VH: QVQLVQSGAEVKKPGASVKVSCKASGYTFTDYWMHWVRQAPGQGLEWMGTIDPSDQYTIYSQNFKGRVTMTRDTSTSTVYMELSSLRSEDTAVYYCARYGFAMDYWGQGTLVTVSS VL: DIQLTQSPSSLSASVGDRVTITCRASQDISNFLNWYQQKPGKAVKLLIYYTSRLHSGVPSRFSGSGSGTDYTLTISSLQPEDFATYFCQQGHTLPRTFGGGTKVEIKR
VALUE UNITS: %
maximal inhibition in pSTAT3 assay: 100

Moving on to the next binder.
Given K44VHa-N56Q (MEDI7169) (antibody, V domains shown) VH: QVQLVQSGAEVKKPGASVKVSCKASGYTFTDYWMHWVRQAPGQGLEWMGTIDPSDQYTIYSQNFKGRVTMTRDTSTSTVYMELSSLRSEDTAVYYCARYGFAMDYWGQGTLVTVSS VL: DIQLTQSPSSLSASVGDRVTITCRASQDISNFLNWYQQKPGKAVKLLIYYTSRLHSGVPSRFSGSGSGTDYTLTISSLQPEDFATYYCQQGHTLPRTFGGGTKVEIK , state its recorded maximal inhibition in pSTAT3 assay.
100
